Biological target: KIT (Homo sapiens)
Construct: made in house
Sequence (P10721 26-976): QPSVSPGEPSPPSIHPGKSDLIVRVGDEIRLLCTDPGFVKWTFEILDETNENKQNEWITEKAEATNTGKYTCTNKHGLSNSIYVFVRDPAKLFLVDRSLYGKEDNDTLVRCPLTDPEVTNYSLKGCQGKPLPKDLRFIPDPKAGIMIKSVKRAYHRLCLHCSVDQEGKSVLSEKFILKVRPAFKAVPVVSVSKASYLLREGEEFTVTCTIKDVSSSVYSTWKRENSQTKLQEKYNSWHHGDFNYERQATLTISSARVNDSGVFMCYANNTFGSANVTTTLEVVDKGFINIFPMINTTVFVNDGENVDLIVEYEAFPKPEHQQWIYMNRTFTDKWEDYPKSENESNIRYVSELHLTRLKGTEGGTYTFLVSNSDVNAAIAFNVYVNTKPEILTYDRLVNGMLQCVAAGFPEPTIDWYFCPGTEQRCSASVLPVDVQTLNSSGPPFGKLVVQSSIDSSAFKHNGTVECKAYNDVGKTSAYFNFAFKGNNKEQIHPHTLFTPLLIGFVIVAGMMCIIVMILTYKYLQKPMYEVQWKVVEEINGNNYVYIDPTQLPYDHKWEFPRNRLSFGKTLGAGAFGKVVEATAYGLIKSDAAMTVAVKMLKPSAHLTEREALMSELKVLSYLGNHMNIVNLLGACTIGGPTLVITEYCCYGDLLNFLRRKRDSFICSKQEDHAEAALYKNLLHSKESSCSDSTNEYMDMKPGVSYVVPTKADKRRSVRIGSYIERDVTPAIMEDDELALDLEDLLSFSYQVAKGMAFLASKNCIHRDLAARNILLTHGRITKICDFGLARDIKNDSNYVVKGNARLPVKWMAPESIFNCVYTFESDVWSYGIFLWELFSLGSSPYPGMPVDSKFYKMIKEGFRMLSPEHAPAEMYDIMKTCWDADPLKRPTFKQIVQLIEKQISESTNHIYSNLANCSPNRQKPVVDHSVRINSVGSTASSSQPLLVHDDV
Assay: Competition binding assay, KIT Kd
measurement-name: Kd

Solved entries:
> print(dat)
                                   molecule  observed.value
1  O[C@@H]1Cc2ccccc2[C@H]1Nc1nc2ccc(Cn3cnc4cccnc43)cc2o1        ≤ 0.1 µM
2  COc1cc2c(cc1Br)ncn2Cc1ccc2nc(N[C@@H]3CCCC[C@H]3O)sc2c1   0.1 to 0.5 µM
3  COc1ccc2ncn(Cc3ccc4nc(N[C@@H]5CCCC[C@H]5O)sc4c3)c2n1        ≤ 0.1 µM
4  OCc1cnc2c(c1)ncn2Cc1ccc2nc(N[C@@H]3CCCC[C@H]3O)sc2c1   0.1 to 0.5 µM
5  O[C@@H]1CCCC[C@H]1Nc1nc2ccc(Cn3cnc4cc(F)cnc43)cc2s1        ≤ 0.1 µM
6  COc1cc2ncn(Cc3ccc4nc(N[C@@H]5CCCC[C@H]5O)oc4c3)c2cc1OC   0.1 to 0.5 µM

Dear colleague, I am looking for the recorded Kd of the following molecule: Cn1cc(-c2cn(Cc3ccc4nc(N[C@@H]5CCCC[C@H]5O)sc4c3)cn2)cn1 0.5 to 2 µM

Dear colleague, I am looking for the recorded Kd of the following molecule: O[C@@H]1CCCC[C@H]1Nc1nc2ccc(Cn3cnc4cnccc43)cc2s1 > 2 µM
